These measurements were taken from patent US7341836B2.

Each entry below carries its recorded d(ΔF/F0)/dt.
Tested on: PDE activity in GH4C1 cells
Experiment: Effect of PDE inhibitors, forskolin and VIP on cAMP levels (Ca2+ influx through CNG channels)
Assay type: cell-based, rat
Conditions: basal cAMP; C460W/E583M channels; inhibitor concentration (μM)

Examples with their reported d(ΔF/F0)/dt follow.
Molecule: COCc1nc2c([nH]1)c(=O)n(C)c(=O)n2CC(C)C
Target or test system: PDE activity in GH4C1 cells
d(ΔF/F0)/dt: 0.0025 ± 0.0009 s⁻¹
--
Molecule: CCCCCC[C@@H]([C@@H](C)O)n1cnc2c(N)ncnc21 (racemic)
Target or test system: PDE activity in GH4C1 cells
d(ΔF/F0)/dt: 0.0029 ± 0.0011 s⁻¹

# context switch: different molecule, same d(ΔF/F0)/dt
Quick note, d(ΔF/F0)/dt for COc1cc2c(cc1OC)-c1c/c(=N\c3c(C)cc(C)cc3C)n(C)c(=O)n1CC2 landed at 0 s⁻¹
